Origin of measurements: patent US20240254246A1

Biological target: T1, cynomolgus CD30L expressed on HEK293 cells (cynomolgus, UniProt A0A7N9CVX7 1-234)
T1 sequence: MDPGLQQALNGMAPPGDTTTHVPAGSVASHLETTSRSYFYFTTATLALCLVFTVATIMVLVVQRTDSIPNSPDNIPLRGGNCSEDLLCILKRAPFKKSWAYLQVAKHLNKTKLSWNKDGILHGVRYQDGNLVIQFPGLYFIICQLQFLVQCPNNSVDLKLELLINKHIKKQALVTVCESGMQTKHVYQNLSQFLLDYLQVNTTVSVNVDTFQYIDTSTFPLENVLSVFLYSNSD
Test: cell-based or functional assay
OBSERVABLE: Inhibition of IL-8 release in a dual cell assay (HEK293-cyCD30L cells + K299 cells) IC50 (nM)
// return numeric value only (unit: nM, not printed)

### Prompt Look at this binder and give its reported Inhibition of IL-8 release in a dual cell assay (HEK293-cyCD30L cells + K299 cells) IC50. Clone 1, Human IgG1 (antibody, V domains shown, Human IgG1 format) VH: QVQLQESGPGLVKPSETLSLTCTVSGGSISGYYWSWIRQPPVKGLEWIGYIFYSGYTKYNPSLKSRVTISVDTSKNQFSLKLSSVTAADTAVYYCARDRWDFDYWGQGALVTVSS VL: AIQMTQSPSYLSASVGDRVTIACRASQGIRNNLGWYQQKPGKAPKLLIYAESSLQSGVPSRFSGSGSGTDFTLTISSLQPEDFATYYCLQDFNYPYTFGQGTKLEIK
### Response 0.22

### Prompt Look at this binder and give its reported Inhibition of IL-8 release in a dual cell assay (HEK293-cyCD30L cells + K299 cells) IC50. Clone 1, Mouse IgG (antibody, V domains shown, Mouse IgG format) VH: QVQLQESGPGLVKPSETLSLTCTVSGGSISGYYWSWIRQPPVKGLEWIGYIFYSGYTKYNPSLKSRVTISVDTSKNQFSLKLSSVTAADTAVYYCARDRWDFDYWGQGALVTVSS VL: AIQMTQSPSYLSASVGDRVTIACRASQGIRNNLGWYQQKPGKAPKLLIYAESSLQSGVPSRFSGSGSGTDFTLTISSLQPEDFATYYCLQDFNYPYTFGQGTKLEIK
### Response 0.55

### Prompt Look at this binder and give its reported Inhibition of IL-8 release in a dual cell assay (HEK293-cyCD30L cells + K299 cells) IC50. Clone 2, Mouse IgG (antibody, V domains shown, Mouse IgG format) VH: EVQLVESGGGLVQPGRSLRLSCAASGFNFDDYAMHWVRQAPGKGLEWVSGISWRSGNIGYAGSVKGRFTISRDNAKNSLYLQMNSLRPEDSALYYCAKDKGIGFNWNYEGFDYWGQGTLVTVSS VL: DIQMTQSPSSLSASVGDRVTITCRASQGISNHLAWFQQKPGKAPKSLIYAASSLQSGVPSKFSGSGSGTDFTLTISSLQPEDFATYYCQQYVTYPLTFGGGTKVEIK
### Response 0.46

### Prompt Look at this binder and give its reported Inhibition of IL-8 release in a dual cell assay (HEK293-cyCD30L cells + K299 cells) IC50. Clone 2, Human IgG1 (antibody, V domains shown, Human IgG1 format) VH: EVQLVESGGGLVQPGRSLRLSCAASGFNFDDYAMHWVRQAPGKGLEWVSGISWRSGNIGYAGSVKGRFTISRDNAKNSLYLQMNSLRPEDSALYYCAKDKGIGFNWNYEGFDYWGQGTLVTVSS VL: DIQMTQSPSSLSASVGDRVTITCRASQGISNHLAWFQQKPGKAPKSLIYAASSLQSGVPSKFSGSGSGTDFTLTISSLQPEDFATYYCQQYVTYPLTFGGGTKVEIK
### Response 0.24
